Values compiled from patent US20050260126A1.

# condition_context: Slc:ICR, mouse, not told, iv
property_name: Permeability into the brain: content in Plasma

>  <compound>
CCN(CC)c1ccc(-c2ccc3ccccc3n2)cc1 [Compound N-313, 2-[(4-diethylamino)-phenyl]quinoline]

>  <value_measured>
1.1 % ID/g or ml

$$$$
>  <compound>
CN(C)c1ccc(/C=C/c2nc3ccccc3o2)cc1

>  <value_measured>
0.7 % ID/g or ml

$$$$
>  <compound>
CN(C)c1ccc(-c2nc3ccccc3s2)cc1

>  <value_measured>
1.5 % ID/g or ml

$$$$
>  <compound>
Cc1nc(/C=C/c2ccc(N(C)C)cc2)oc1C

>  <value_measured>
2.9 % ID/g or ml

$$$$
>  <compound>
CNc1ccc(-c2ccc3ccccc3n2)cc1 [BF-158, 2-[(4-methylamino)-phenyl]quinoline]

>  <value_measured>
1.8 % ID/g or ml

$$$$
>  <compound>
CN(C)c1ccc(/C=C/c2nc3ccccc3s2)c(O)c1

>  <value_measured>
2.6 % ID/g or ml

$$$$
>  <compound>
Clc1ccc(/C=C/c2nc3ccccc3o2)cc1

>  <value_measured>
2.1 % ID/g or ml

$$$$
>  <compound>
CNc1ccc(C=Cc2ccc3ccccc3n2)c(O)c1

>  <value_measured>
4.7 % ID/g or ml

$$$$
